B1: library; a variant is named by its letters at N, in order (parent)
chain: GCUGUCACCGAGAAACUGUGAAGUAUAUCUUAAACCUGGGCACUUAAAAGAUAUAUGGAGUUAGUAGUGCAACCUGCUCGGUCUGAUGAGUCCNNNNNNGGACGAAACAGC

Variants of: B1
Experiment: normalized RNA/DNA level with ligand (relative to sTRSVctl = 100) (log10 (% of sTRSVctl)); HEK293T; ligand: cyclic di-GMP (c-di-GMP-II aptamer); ligand concentration (+) RNA-Seq: 1 mM; higher = less ribozyme self-cleavage, higher mRNA level
Details: reporter: mCherry (pCS4076), ligand present: yes
value type: normalized RNA/DNA level with ligand (log10)
Answer field: number only, no words.

- change: "CUUAAG"
  reported value: 1.89
- change: "GCGUCA"
  reported value: 1.79
- change: "UUUUUG"
  reported value: 1.87
- change: "CACCUA"
  reported value: 1.58
- change: "UUAUGU"
  reported value: 1.84
- change: "AUAGAA"
  reported value: 1.61
- change: "AAGGAC"
  reported value: 1.73
- change: "GUUACA"
  reported value: 1.8
- change: "UGAUCA"
  reported value: 1.88
- change: "CAUCAG"
  reported value: 1.76

Okay, now this variant:
Ask: Any idea what its normalized RNA/DNA level with ligand (log10) is? The variant is CUUUGU
Reply: 1.87
